Biological target: Human mTOR (FLAG-TOR) (Homo sapiens)
Construct: FLAG
Assay: Human mTOR kinase assay with purified enzyme, DELFIA format
Assay type: biochemical
attribute.measured: pIC50
Scale: pIC50 equals -log10([C]), with [C] in mol/L.

Look over these answered cases.
1. CN1CCN(c2ccc(NC(=O)Nc3ccc(-c4nc(N5CC6CCC(C5)O6)c5cnn(C)c5n4)cc3)cn2)CC1 = 9.20
2. CCOC(=O)N1CCC(n2ncc3c(N4CC5CCC(C4)O5)nc(-c4ccc(NC(=O)NCCCNC)cc4)nc32)CC1 = 8.28
3. CC(C)OC(=O)N1CCC(n2ncc3c(N4CC5CCC(C4)O5)nc(-c4ccc(NC(=O)Nc5ccccc5)cc4)nc32)CC1 = 9.21

Moving on to another compound below.
Query: What does the record list as pIC50 for O=C(Nc1ccc(-c2nc(N3CC4CCC(C3)O4)c3cnn(CCF)c3n2)cc1)Nc1ccc(N2CCOCC2)cc1 ?
Reply: 9.73
